Just for reference, PubChem BioAssay (NCATS) is where these values come from.

# assay: Cell Viability - LYMP1-002 - Assay at 16 hr (AID 948);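 note: 0% = DMSO alone and full effect = 92 µM tetraoctylammonium bromide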
# assay.conditions: LYMP1-002 lymphoblastoid cell viability; series mostly up to 92.2 µM
Records with an inconclusive call do not appear. Active and inactive are the calls of the source. Calls come from the whole dose curve; as a rule, active = well fitted cell-killing curve with a large enough effect; inconclusive = small, poorly fitted or top-dose-only effect; inactive = flat fitted curve, though single readings scatter.
quantity.kind: outcome

>>> result("COc1cc([C@H]2Oc3cc([C@H]4Oc5cc(O)cc(O)c5C(=O)[C@@H]4O)ccc3O[C@@H]2CO)ccc1O")
"inactive"
>>> result("OC[C@H]1O[C@@H]2O[C@H]3[C@H](O)[C@@H](O)[C@@H](O[C@H]4[C@H](O)[C@@H](O)[C@@H](O[C@H]5[C@H](O)[C@@H](O)[C@@H](O[C@H]6[C@H](O)[C@@H](O)[C@@H](O[C@H]7[C@H](O)[C@@H](O)[C@@H](O[C@H]8[C@H](O)[C@@H](O)[C@@H](O[C@H]1[C@H](O)[C@H]2O)O[C@@H]8CO)O[C@@H]7CO)O[C@@H]6CO)O[C@@H]5CO)O[C@@H]4CO)O[C@@H]3CO")
"inactive"
>>> result("O=C(O)c1ccc(S(=O)(=O)N(Cl)Cl)cc1")
"inactive"
>>> result("C/C=C/c1ccc(O)c(OC)c1")
"inactive"

====

# system.tested: Peroxisome proliferator-activated receptor gamma (Homo sapiens) (UniProt P37231)
# Sequence (P37231 whole entry, looked up): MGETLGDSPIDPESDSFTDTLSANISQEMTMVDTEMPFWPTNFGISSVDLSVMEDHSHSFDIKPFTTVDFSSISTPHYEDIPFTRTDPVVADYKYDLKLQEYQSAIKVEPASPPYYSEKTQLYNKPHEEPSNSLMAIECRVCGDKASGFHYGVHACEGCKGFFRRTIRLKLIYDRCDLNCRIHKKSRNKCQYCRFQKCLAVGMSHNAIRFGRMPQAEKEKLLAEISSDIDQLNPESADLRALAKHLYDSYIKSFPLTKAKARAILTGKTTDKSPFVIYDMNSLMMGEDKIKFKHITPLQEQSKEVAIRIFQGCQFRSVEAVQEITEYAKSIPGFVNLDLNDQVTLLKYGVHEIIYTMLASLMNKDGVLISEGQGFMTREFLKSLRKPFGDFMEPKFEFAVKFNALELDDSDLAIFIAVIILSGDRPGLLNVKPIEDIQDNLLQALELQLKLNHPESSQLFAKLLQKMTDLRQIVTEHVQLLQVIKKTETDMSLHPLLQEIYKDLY
# assay: qHTS assay for small molecule antagonists of peroxisome proliferator-activated receptor gamma signaling (AID 588537)
# assay.conditions: HEK293 PPARg-UAS-bla, beta-lactamase ratio, antagonist mode; series mostly up to 76.8 µM
Records with an inconclusive call do not appear. Active and inactive are the calls of the source. The call rests on the fitted dose curve; in most records, active means well fitted inhibition curve with a large enough effect in the signal ratio, with a control signal flat (not every such curve was filed as active); inconclusive means small, poorly fitted or top-dose-only effect, or effect the other way, or a change in a side signal; inactive means flat fitted curve, though single readings scatter; the % refers to the signal ratio.
Please reply with one of these outcomes: label 1 = active, label 0 = inactive

Some solved entries appear below for comparison.
>>> classification("CCOc1ccc(NC(C)=O)cc1")
"label 0"
>>> classification("CC1(C)OC[C@@H]2O[C@@]3(C(=O)O)OC(C)(C)O[C@H]3[C@@H]2O1")
"label 0"
>>> classification("CCCCCCCCCCCCCC(=O)OC(C)C")
"label 0"
>>> classification("CCCCCCCCCCCCCCCCO")
"label 0"
>>> classification("CCCN(CCC)S(=O)(=O)c1ccc(C(=O)O)cc1")
"label 0"
>>> classification("CCCCC(CC)COC(=O)c1ccc(N(C)C)cc1 (stereo unspecified)")
"label 0"
>>> classification("CC(C)(C)CC(C)(C)c1ccc(O)c(-n2nc3ccccc3n2)c1")
"label 0"
>>> classification("C/C=C/c1ccc(O)c(OC)c1")
"label 0"

Assay outcome for "CN(C)C(=O)Nc1ccc(Cl)c(Cl)c1" : what was it?
label 0

In this assay, the call recorded for "O=C(O)c1ccc(S(=O)(=O)N(Cl)Cl)cc1" was what?
label 0

Test call, this molecule: "NCCNc1cccc2ccccc12"
label 1

====

# Tested on: CP291
# assay: qHTS profiling for inhibitors of Plasmodium falciparum proliferation (AID 504749);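 note: 0% = DMSO vehicle and full inhibition = artemisinin control; nearly all actives have a fitted effect of over 60% in size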
# assay.conditions: P. falciparum in erythrocytes, SYBR Green DNA, 72 h; series mostly up to 28.7 µM
# Protocol: NIH National Institute of Allergy and Infectious Diseases [NIAID] NIH Chemical Genomics Center [NCGC] […] Because mature erythrocytes lack DNA, only Plasmodium-derived DNA is detected. NCGC Assay Protocol Summary: The SYBR Green viability assay was adapted from a method described previously (Plouffe et al., 2008). […] The following morning, fluorescence intensity at 485(14) nm excitation and 535(25) nm emission wavelengths was measured on an EnVision (Perkin Elmer) plate reader. […]
Records with an inconclusive call do not appear. The source made the active and inactive calls. Calls come from the whole dose curve; as a rule, active = well fitted inhibition curve with a large enough effect; inconclusive = small, poorly fitted or top-dose-only effect; inactive = flat fitted curve, though single readings scatter.
Please reply with one of these outcomes: active, inactive

Tell me the assay call for "CCc1oc2ccccc2c1C(=O)c1cc(I)c(O)c(I)c1" please.
inactive
